test system: Zea mays (ZEAMX); assay: Post-emergence Test, Zea mays (ZEAMX); format: in vivo; conditions: 1000 g/ha, evaluated after 13 days
compounds and their reported Post-emergence Test ZEAMX, percentage damage caused to the plant (five-point scale)
Reported endpoint: Post-emergence Test ZEAMX, percentage damage caused to the plant (five-point scale)

# Compound, Reported measurement
records = [
    ("CCn1c(Cn2ccc(-c3cnccn3)n2)cc(=O)c(C(=O)O)c1-c1ccc(Cl)c(Cl)c1 [Compound 203]", "1 (1=0-20%)"),
    ("CCn1c(Cn2ccc(/C=N/OC)n2)cc(=O)c(C(=O)O)c1-c1ccc(Cl)c(Cl)c1 [Compound 204]", "3 (3=41-60%)"),
    ("CCn1c(Cn2ccc(-c3ccc(Cl)cc3)n2)cc(=O)c(C(=O)O)c1-c1ccc(Cl)c(Cl)c1 [Compound 199]", 0),
    ("CCn1c(Cn2ccc(-c3ccco3)n2)cc(=O)c(C(=O)O)c1-c1ccc(Cl)c(Cl)c1 [Compound 200]", "1 (1=0-20%)"),
    ("CCn1c(Cn2ccc(-c3nccs3)n2)cc(=O)c(C(=O)O)c1-c1ccc(Cl)c(Cl)c1 [Compound 201]", "1 (1=0-20%)"),
    ("CCn1c(Cn2ccc(-c3ccncc3)n2)cc(=O)c(C(=O)O)c1-c1ccc(Cl)c(Cl)c1 [Compound 195]", "1 (1=0-20%)"),
    ("CCn1c(Cn2nc(-c3ccccc3)cc2C(F)(F)F)cc(=O)c(C(=O)O)c1-c1ccc(Cl)c(Cl)c1 [Compound 198]", "2 (2=21-40%)"),
    ("CCn1c(Cn2ccc(-c3ccc(C)cc3)n2)cc(=O)c(C(=O)O)c1-c1ccc(Cl)c(Cl)c1 [Compound 196]", "1 (1=0-20%)"),
    ("CCn1c(Cn2ccc(-c3cccs3)n2)cc(=O)c(C(=O)O)c1-c1ccc(Cl)c(Cl)c1 [Compound 194]", "1 (1=0-20%)"),
    ("CCn1c(Cn2ccc(-c3cccc(Cl)c3)n2)cc(=O)c(C(=O)O)c1-c1ccc(Cl)c(Cl)c1 [Compound 202]", "1 (1=0-20%)"),
]

###

test system: Ipomoea hederacea (IPOHE); assay: Post-emergence Test, Ipomoea hederacea (IPOHE); assay type: in vivo; conditions: 1000 g/ha, evaluated after 13 days
Reported endpoint: Post-emergence Test IPOHE, percentage damage caused to the plant (five-point scale)

# Compound, Reported measurement
measured = [
    ("CCn1c(Cn2ccc(-c3ccc(Cl)cc3)n2)cc(=O)c(C(=O)O)c1-c1ccc(Cl)c(Cl)c1 [Compound 199]", "2 (2=21-40%)"),
    ("CCn1c(Cn2nc(-c3ccccc3)cc2C(F)(F)F)cc(=O)c(C(=O)O)c1-c1ccc(Cl)c(Cl)c1 [Compound 198]", "2 (2=21-40%)"),
    ("CCn1c(Cn2ccc(-c3cnccn3)n2)cc(=O)c(C(=O)O)c1-c1ccc(Cl)c(Cl)c1 [Compound 203]", "1 (1=0-20%)"),
]

###

Recorded percentage damage caused to the plant, IPOHE (five-point scale) by entry
test system: Ipomoea hederacea (IPOHE); assay: Post-emergence Test, Ipomoea hederacea (IPOHE); type: in vivo; set-up: key: 5=81-100%, 4=61-80%, 3=41-60%, 2=21-40%, 1=0-20% damage; conditions: 1000 g/ha, evaluated after 13 days
Reported endpoint: percentage damage caused to the plant, IPOHE (five-point scale)

# Query smiles, Reported measurement
data = [
    ("CCn1c(Cn2ccc(O)n2)cc(=O)c(C(=O)O)c1-c1ccc(Cl)c(Cl)c1", 0),
    ("CCn1c(Cn2cnc(Cl)c2)cc(=O)c(C(=O)O)c1-c1ccc(Cl)c(Cl)c1", 0),
    ("CCn1c(Cn2nc(C(C)(C)C)cc2C(F)(F)F)cc(=O)c(C(=O)O)c1-c1ccc(Cl)c(Cl)c1", "1 (1=0-20%)"),
    ("CCn1c(Cn2ccc(NC(C)=O)n2)cc(=O)c(C(=O)O)c1-c1ccc(Cl)c(Cl)c1", 0),
    ("Cn1c(Cn2ccc(C(F)(F)F)n2)cc(=O)c(C(=O)O)c1-c1ccc(C#N)c(Cl)c1", "3 (3=41-60%)"),
    ("CCn1c(Cn2cnc(Cl)n2)cc(=O)c(C(=O)O)c1-c1ccc(Cl)c(Cl)c1", "1 (1=0-20%)"),
    ("CCn1c(Cn2ccc(C(F)F)n2)cc(=O)c(C(=O)O)c1-c1ccc(Cl)c(Cl)c1", "4 (4=61-80%)"),
    ("CCOC(=O)c1c(-c2ccc(Cl)c(Cl)c2)n(CC)c(Cn2cnc(C#N)n2)cc1=O", 0),
    ("CCn1c(Cn2nc(C(F)(F)F)cc2C(F)(F)F)cc(=O)c(C(=O)O)c1-c1ccc(Cl)c(Cl)c1", "3 (3=41-60%)"),
    ("CCn1c(Cn2ccc(OC)n2)cc(=O)c(C(=O)O)c1-c1ccc(Cl)c(Cl)c1", "3 (3=41-60%)"),
    ("CCOC(=O)c1c(-c2ccc(Cl)c(Cl)c2)n(CC)c(Cn2cnc(Cl)c2Cl)cc1=O", "1 (1=0-20%)"),
    ("CCn1c(Cn2ccc(C(F)(F)F)n2)c(C)c(=O)c(C(=O)O)c1-c1ccc(Cl)c(Cl)c1", 0),
    ("CCn1c(Cn2nc(C)cc2OC)cc(=O)c(C(=O)O)c1-c1ccc(Cl)c(Cl)c1", "3 (3=41-60%)"),
    ("CCOC(=O)c1cc(C(=O)OCC)n(Cc2cc(=O)c(C(=O)O)c(-c3ccc(Cl)c(Cl)c3)n2CC)n1", "2 (2=21-40%)"),
    ("CCn1c(Cn2cncc2C(F)(F)F)cc(=O)c(C(=O)O)c1-c1ccc(Cl)c(Cl)c1", "5 (5=81-100%)"),
    ("CCn1c(Cn2cc(C(F)(F)F)cn2)cc(=O)c(C(=O)O)c1-c1ccc(Cl)c(Cl)c1", "1 (1=0-20%)"),
]

###

tested on: Ipomoea hederacea (IPOHE); test: Post-emergence Test, Ipomoea hederacea (IPOHE); assay type: in vivo; parameters: key: 5=81-100%, 4=61-80%, 3=41-60%, 2=21-40%, 1=0-20% damage; settings: 1000 g/ha, evaluated after 13 days
Reported endpoint: percentage damage caused to the plant, IPOHE (five-point scale)

# Query smiles, Reported measurement
records = [
    ("CCOC(=O)c1c(-c2ccc(Cl)c(Cl)c2)n(CC)c(Cn2ncc3cnc(Cl)cc32)cc1=O", "2 (2=21-40%)"),
    ("COCCn1c(Cn2ccc(C(F)(F)F)n2)cc(=O)c(C(=O)O)c1-c1ccc(Cl)c(Cl)c1", "3 (3=41-60%)"),
    ("CCn1c(Cn2nc(C(F)(F)F)cc2C2CC2)cc(=O)c(C(=O)O)c1-c1ccc(Cl)c(Cl)c1", "4 (4=61-80%)"),
]

###

Measured percentage damage caused to the plant, IPOHE (five-point scale), listed per entry.
test system: Ipomoea hederacea (IPOHE); assay: Post-emergence Test, Ipomoea hederacea (IPOHE); format: in vivo; parameters: key: 5=81-100%, 4=61-80%, 3=41-60%, 2=21-40%, 1=0-20% damage; details: 1000 g/ha, evaluated after 13 days
Reported endpoint: percentage damage caused to the plant, IPOHE (five-point scale)

# Query smiles, System tested, Reported measurement
records = [
    ("CCn1c(Cn2cnc(C(=O)OC)c2C(=O)OC)cc(=O)c(C(=O)O)c1-c1ccc(Cl)c(Cl)c1", "Ipomoea hederacea (IPOHE)", 0),
    ("CCOC(=O)c1c(-c2ccc(Cl)c(Cl)c2)n(CC)c(Cn2cnc(C(F)(F)F)n2)cc1=O", "Ipomoea hederacea (IPOHE)", "2 (2=21-40%)"),
    ("CCn1c(Cn2ncc(Cl)c2C)cc(=O)c(C(=O)O)c1-c1ccc(Cl)c(Cl)c1", "Ipomoea hederacea (IPOHE)", "2 (2=21-40%)"),
    ("CCOC(=O)c1nccn1Cc1cc(=O)c(C(=O)O)c(-c2ccc(Cl)c(Cl)c2)n1CC", "Ipomoea hederacea (IPOHE)", "1 (1=0-20%)"),
    ("CCn1c(Cn2cc(C(C)=O)c(C)n2)cc(=O)c(C(=O)O)c1-c1ccc(Cl)c(Cl)c1", "Ipomoea hederacea (IPOHE)", "3 (3=41-60%)"),
    ("CCn1c(Cn2cc3c(n2)COC3)cc(=O)c(C(=O)O)c1-c1ccc(Cl)c(Cl)c1", "Ipomoea hederacea (IPOHE)", "3 (3=41-60%)"),
    ("CCn1c(Cn2cc3cc(Cl)ccc3n2)cc(=O)c(C(=O)O)c1-c1ccc(Cl)c(Cl)c1", "Ipomoea hederacea (IPOHE)", "1 (1=0-20%)"),
    ("CCn1c(Cn2cc(F)cn2)cc(=O)c(C(=O)O)c1-c1ccc(Cl)c(Cl)c1", "Ipomoea hederacea (IPOHE)", "1 (1=0-20%)"),
    ("C/C=C/C(=O)Nc1ccn(Cc2cc(=O)c(C(=O)O)c(-c3ccc(Cl)c(Cl)c3)n2CC)n1", "Ipomoea hederacea (IPOHE)", 0),
    ("CCn1c(Cn2ccc(OC(F)F)n2)cc(=O)c(C(=O)O)c1-c1ccc(Cl)c(Cl)c1", "Ipomoea hederacea (IPOHE)", "2 (2=21-40%)"),
    ("CCn1c(Cn2cc(S(C)(=O)=O)cn2)cc(=O)c(C(=O)O)c1-c1ccc(Cl)c(Cl)c1", "Ipomoea hederacea (IPOHE)", 0),
    ("CCn1c(Cn2nc(C)cc2O)cc(=O)c(C(=O)O)c1-c1ccc(Cl)c(Cl)c1", "Ipomoea hederacea (IPOHE)", 0),
    ("CCn1c(Cn2ccc(OC(C)C)n2)cc(=O)c(C(=O)O)c1-c1ccc(Cl)c(Cl)c1", "Ipomoea hederacea (IPOHE)", "4 (4=61-80%)"),
    ("CCn1c(Cn2nc(C(F)(F)F)cc2OC)cc(=O)c(C(=O)O)c1-c1ccc(Cl)c(Cl)c1", "Ipomoea hederacea (IPOHE)", "3 (3=41-60%)"),
    ("CCn1c(Cn2ccnc2C2CC2)cc(=O)c(C(=O)O)c1-c1ccc(Cl)c(Cl)c1", "Ipomoea hederacea (IPOHE)", "1 (1=0-20%)"),
    ("CCn1c(Cn2ccc(Cl)n2)cc(=O)c(C(=O)O)c1-c1ccc(F)c(Cl)c1", "Ipomoea hederacea (IPOHE)", "1 (1=0-20%)"),
]
